Test: NCI Yeast Anticancer Drug Screen. Data for the bub3 strain (AID 167)
Conditions: S. cerevisiae bub3 mutant strain, at 50.0 µM, active compounds read high
This is part of a sample that, as a whole, favours compounds with a hit. Of some 79,000 tested, about 15% had one in any assay. Activity calls are given as the source filed them. Rule as the data show it: active = growth inhibition above about 70%; inactive = the rest.
I'd appreciate it if you could supply growth inhibition values for the items below.

Cc1ccc(Cl)cc1NC(=O)Nc1cccc(C(F)(F)F)c1: 37.1% (inactive)
COC1=CC(=O)OC(c2ccccc2)(c2ccccc2)C1: 13.6% (inactive)

Hi there! I need growth inhibition for each item below, if you can.
1. CCCCCCC(=O)/C=C/c1ccccc1OCOC
2. CCOC(=O)C1=NN(c2ccccc2)C(=O)/C1=C\N1CC(=O)NC1=S

-- reply
1: -18.9% (inactive); 2: 9.85% (inactive)

Below are some compounds; for each one, tell me its growth inhibition.
1. O=c1c2c(ccc3ccccc32)oc2ccc3ccccc3c12
2. CCO/C=C(\C(=O)OC)S(=O)(=O)c1ccc(C)cc1
3. Cn1c(=O)c2[nH]c(CC3=CCCCC3)nc2n(C)c1=O

-- reply
-7.65% (inactive)
-9.1% (inactive)
4.4% (inactive)

---

Consider the following compounds; for each one, report its growth inhibition.
Experiment: NCI Yeast Anticancer Drug Screen. Data for the sgs1 mgt1 strain (AID 161);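 also: 0% = growth of cultures given vehicle only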
Details: S. cerevisiae sgs1 mgt1 strain, at 50.0 µM, active compounds read high
This is part of a sample that, as a whole, favours compounds with a hit. Of some 79,000 tested, about 15% had one in any assay.
Numbers only, in %.

COc1cc(/C=C/C(=O)c2sc(-n3nc(-c4ccccc4)cc3-c3ccccc3)nc2C)ccc1O: -34.4
CC(C)S1=C2C(=O)CC(C)(C)CC2=Nc2ccccc21 (stereo unspecified): 2.95
COc1cc2c3c(c1)-c1c(ccc(OC)c1Oc1nnnn1-c1ccccc1)CC3N(C)CC2 (stereo unspecified): 28.9
CCN(CC)CC(C)(C)C(=O)/C=C/c1ccc(C)cc1: 57.5
Cc1cccc(C(=O)NCC(=O)O)c1: -9.9

Please look at the following compound next.
Kindly note the recorded growth inhibition for O=c1[nH]cc(CO)c(=O)[nH]1 , which is -1.7

---

Assay: NCI Yeast Anticancer Drug Screen. Data for the sgs1 mgt1 strain (AID 161);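 also: 0% = growth of cultures given vehicle only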
Conditions: S. cerevisiae sgs1 mgt1 strain, at 50.0 µM, active compounds read high
Experimental: Growth inhibition of yeast strains with defined genetic alterations is measured as a screen for potential anti-cancer activity. Selected strains with alterations in DNA damage repair or cell cycle control were exposed to compounds and growth inhibition was measured relative to vehicle treated controls. The strain used in this assay is sgs1 mgt1
Compounds without any hit were thinned out: in the full panel of roughly 79,000, 15% have a hit.
EXPERIMENTAL_ENDPOINT: growth inhibition (%)
Numbers only, in %.

// worked examples, growth inhibition included
O=C1C=C(c2ccccc2)Sc2ccccc2N1: 19.1
CC1(Br)CC2OC3(Br)C=CC(C)(O)C2(CC1=O)C3(C)C (stereo unspecified): 13.4
Cc1[nH]c(=O)[nH]c(=O)c1N: -28.9
O=C1CS(=O)(=O)C2(CCCCC2)C(=O)N1: -12.2

Items follow; give growth inhibition for each.
1. O=C(O)c1ccccc1C(=O)OCC1CCCc2ccccc21 (stereo unspecified)
2. CN(O)C(=O)c1ccccc1

-- reply
41.5
-6.35

---

Assay: NCI Yeast Anticancer Drug Screen. Data for the bub3 strain (AID 167)
Settings: S. cerevisiae bub3 mutant strain, at 50.0 µM, active compounds read high
Compounds without any hit were thinned out: in the full panel of roughly 79,000, 15% have a hit. Activity calls are given as the source filed them. Cut-off read from the data, not from the text of the source: active = growth inhibition above about 70%; inactive = the rest.
EXPERIMENTAL_ENDPOINT: growth inhibition

Use these answered entries as a reference point.
O=S1(=O)C=C(Br)CO1: -20.6% (inactive)
CC(C)CN1CC(=O)N2Cc3ccccc3CN2C(=O)C1: -1.3% (inactive)
O=S(=O)(OCC1CC2C=CC1C2)c1ccc(Br)cc1 (stereo not drawn): 54.9% (inactive)
c1ccc(N=c2snc3scc(-c4ccccc4)n23)cc1: 33.5% (inactive)
O=C(COc1ccc(Cl)cc1)N1N=C(c2ccc(Cl)cc2)CC1(O)c1ccccc1 (stereo not drawn): -18.2% (inactive)

Give one value of growth inhibition per listed compound.
1. COC(=O)C(C(=O)OC)C(c1cccc([N+](=O)[O-])c1)C(N)c1ccccc1 (stereo not drawn)
2. O=C(C(=Cc1ccc(F)cc1)C(=O)c1ccccc1)c1ccccc1
3. COC(=O)c1nc(N)nc(C(=O)OC)c1C(=O)c1cc(Cl)ccc1Cl
4. CCC(=O)c1c(NOC2OCC(OC(C)=O)C(OC(C)=O)C2OC(C)=O)nc(OC)n(C)c1=O (stereo not drawn)
5. COc1ccc(OC)c(NC(=O)Nc2cc(Cl)ccc2C)c1
6. Cc1ccc(S(=O)(=O)/C=C(\I)c2ccc([N+](=O)[O-])cc2)cc1

-- reply
1: 32.1% (inactive); 2: 3.35% (inactive); 3: -6.3% (inactive); 4: -24.8% (inactive); 5: 19.2% (inactive); 6: 98.9% (active)

---

Please provide measured growth inhibition for the entries that follow.
Assay: NCI Yeast Anticancer Drug Screen. Data for the rad50 strain (AID 155);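 also: 0% = growth of vehicle-only cultures of the same strain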
Conditions: S. cerevisiae rad50 strain growth inhibition; at 50.0 µM; active compounds read high
Compounds without any hit were thinned out: in the full panel of roughly 79,000, 15% have a hit.
One number for each entry, in %.

Reference set, count: 3
NC(=O)CNC(=O)c1ccc(N)cc1: 16.8
N#CC(C(=O)C(N)=O)c1nc2ccccc2s1 (stereo not drawn): 20.2
O=c1[nH]c2cc([N+](=O)[O-])ccc2nc1/C=C(\O)c1ccco1: 7.7

I'm hoping you can list growth inhibition for every molecule here, please.
1. C/C(=N/O)c1sc(-c2nc(C)c(/C(C)=N\O)s2)nc1C
2. CCOC(NC(C)=O)C(O)c1ccc(Cl)cc1 (stereo not drawn)
3. O=C(NCCN1CCCCC1)C(O)(C1CCCCC1)C1CCCCC1

-- reply
1: -1.7; 2: 20.1; 3: -6.85

Go through the list and state growth inhibition for each entry.
1. COC(=O)[C@@H]1[C@H](O)CC[C@H]2[C@@]1(C)CC[C@@H](C)[C@]2(COC(C)=O)CC(=O)c1ccoc1
2. c1ccc(-c2cnc(C3CCCCC3)o2)cc1

-- reply
[-27.1, 28]

---

Would you kindly list growth inhibition for each of these molecules?
Assay: NCI Yeast Anticancer Drug Screen. Data for the mec2-1 strain (AID 157)
Conditions: S. cerevisiae mec2-1 strain, at 50.0 µM, active compounds read high
About 79,000 compounds went through this panel and 15% of them were active in at least one assay; those are over-represented in the sample as a whole. Active and inactive are the calls of the source. No stated cut-off is given here; in the data, active means growth inhibition above about 70%; inactive means the rest.

CC1(C)CC(=O)C2=C(C1)NC(=S)C(C#N)C2c1ccccc1 (stereo not given): -4% (inactive)
CCCSc1ncnc2c1nc(C)n2CO: -2.55% (inactive)
CCNC(=O)OCc1cc(Cl)cc(Cl)c1OC(=O)NCC: 99.2% (active)
C[C@H]1C[C@H]2[C@@H]3CC[C@@]4(OCC4=O)[C@@]3(C)C[C@H](O)[C@]2(F)[C@@]2(C)C=CC(=O)C=C12: -24.4% (inactive)

growth inhibition in this record for CCCC[Si]CCCC : 10% (inactive)

---

Test: NCI Yeast Anticancer Drug Screen. Data for the bub3 strain (AID 167)
Settings: S. cerevisiae bub3 mutant strain, at 50.0 µM, active compounds read high
Compounds without any hit were thinned out: in the full panel of roughly 79,000, 15% have a hit.
Can you tell me growth inhibition for the items I'm about to list?
Answers are plain numbers, in %.

CC(NCc1cc(O)c(CNC(C)c2ccccc2)cc1O)c1ccccc1 (stereo not drawn): 12.4
CN=C1NC(C)(C)C2CCC(C)(CC2)S1: 2.85

For each of the compounds below, note its growth inhibition.
1. CCOC(=O)C1=C(C(C)=O)C(c2ccc(OC)c(OC)c2)C(C(C)=O)=C(C(=O)OCC)N1
2. Cc1ccc(C)c(OC(=O)Nc2ccccc2)c1

-- reply
[-4.95, -3.7]

# return growth inhibition for each item in the list
1. CS(=O)(=O)OC1C(OC(=O)c2ccccc2)COC(OCc2ccccc2)C1OS(C)(=O)=O (stereo not drawn)
2. Nc1ccc(F)cc1C(F)(F)F
3. CN1/C(=C/C=C/C=C/C=C2C(=O)c3ccccc3C2=O)C(C)(C)c2ccccc21
4. O=[N+]([O-])c1ccccc1N=Nc1c(O)[nH]c2c(Cl)cc(Cl)cc12
5. N#CCCC1(CCC#N)CCCCCCCCC(CCC#N)(CCC#N)C(=O)C1=O

-- reply
1. 5.35
2. -8.05
3. -8.9
4. -45.4
5. 2.4

---

Test: NCI Yeast Anticancer Drug Screen. Data for the sgs1 mgt1 strain (AID 161);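 also: 0% = growth of cultures given vehicle only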
Conditions: S. cerevisiae sgs1 mgt1 strain, at 50.0 µM
The panel holds about 79,000 compounds, 15% with a hit somewhere; the sample as a whole holds those more often. Active and inactive are the calls of the source. Cut-off read from the data, not from the text of the source: active = growth inhibition above about 70%; inactive = the rest.
Output constraint: value belongs to active, inactive

Worked set:
C/C(=N\NC(=O)CC(=O)N(C(=O)c1ccc(Cl)cc1)c1ccc(C)cc1)c1ccccc1O: inactive
O=[N+]([O-])c1cccc([I+]c2cccc([N+](=O)[O-])c2)c1: active
NC(N)=NNC(=S)S: inactive
COc1ccc(-c2nnc(Cl)o2)cc1: inactive
O=Cc1ccc(/C=C/C(=O)O)cc1: inactive
C=C1CC(CC(=O)C(C)CC2CC(=C)C(=O)O2)OC1=O (configuration not stated): inactive

-- ask Record lookup: outcome of this test for Cc1cccc(OC(=O)Oc2cccc(C)c2)c1 ?
-- reply inactive

-- ask Hello, I am checking results. What call was entered for Nc1cc2c(cc1Br)-c1ccc(Br)cc1C2=O ?
-- reply inactive

-- ask # fetch the recorded call for OCC(O)COCC#Cc1ccccc1 (configuration not stated) here
-- reply inactive
